target: T1, human MSLN-FL-his protein (human, UniProt Q13421 296-580); assay: competitive ELISA; row F8-32.3; also: test concentration or dose not given here
T1 construct: made in HEK293E cells, purified on nickel column; also called hMSLN-FL-his; human MSLN full-length protein; not shown: His tag
T1 sequence (Q13421 other isoform, or with tags, fused parts or gaps): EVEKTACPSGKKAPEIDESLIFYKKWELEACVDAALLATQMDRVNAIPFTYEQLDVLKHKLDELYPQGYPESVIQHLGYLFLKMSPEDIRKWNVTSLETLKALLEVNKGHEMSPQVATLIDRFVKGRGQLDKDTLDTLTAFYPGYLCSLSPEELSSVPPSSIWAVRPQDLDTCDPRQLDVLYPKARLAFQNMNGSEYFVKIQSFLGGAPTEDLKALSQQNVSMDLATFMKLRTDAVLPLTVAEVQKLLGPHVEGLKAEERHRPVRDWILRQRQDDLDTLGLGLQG
This listing pairs binders with measured competition rate.
The reply should contain only the number, in %.

binder: S009-F8-32.3 (antibody, human IgG1, kappa, V domains shown, human-murine chimeric antibody, human IgG1/kappa constant regions) VH: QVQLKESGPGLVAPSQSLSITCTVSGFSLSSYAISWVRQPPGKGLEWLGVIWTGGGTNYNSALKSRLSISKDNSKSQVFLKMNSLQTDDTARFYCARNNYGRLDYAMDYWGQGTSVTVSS VL: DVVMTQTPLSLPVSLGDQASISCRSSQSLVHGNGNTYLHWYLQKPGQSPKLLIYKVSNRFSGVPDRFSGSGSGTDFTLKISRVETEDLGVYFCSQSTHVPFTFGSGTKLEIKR
competition rate, %: 79.3

binder: S009-F8-33.12 (antibody, human IgG1, kappa, V domains shown, human-murine chimeric antibody, human IgG1/kappa constant regions) VH: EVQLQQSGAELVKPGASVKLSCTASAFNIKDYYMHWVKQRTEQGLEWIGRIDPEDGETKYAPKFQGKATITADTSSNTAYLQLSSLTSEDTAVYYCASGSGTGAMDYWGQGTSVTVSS VL: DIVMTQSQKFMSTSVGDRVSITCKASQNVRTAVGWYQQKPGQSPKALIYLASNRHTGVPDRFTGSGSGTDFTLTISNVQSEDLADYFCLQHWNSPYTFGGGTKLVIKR
competition rate, %: 84.9

Let us examine a further case.
S009-F8-8.22 (antibody, human IgG1, kappa, V domains shown, human-murine chimeric antibody, human IgG1/kappa constant regions) VH: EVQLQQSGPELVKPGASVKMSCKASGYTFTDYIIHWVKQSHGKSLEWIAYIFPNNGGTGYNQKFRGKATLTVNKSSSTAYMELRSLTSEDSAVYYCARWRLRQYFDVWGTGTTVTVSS VL: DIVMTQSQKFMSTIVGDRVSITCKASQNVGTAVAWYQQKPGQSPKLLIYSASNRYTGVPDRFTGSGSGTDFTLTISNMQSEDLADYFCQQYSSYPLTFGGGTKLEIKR yielded competition rate of 77.7
